Reference source: paper PMC10216605

# Tested on: L6 cells
# protocol: Acute metabolic switch assay (cellular ATP content, glucose vs galactose media) in L6 differentiated myotubes
# assay context: read-out: ATP IC50 Glucose; L6 cells, 2 h exposure, glucose serum-free media, mean ± S.D. (n = 3)
pIC50: −log10 of the molar value.
measure: pIC50

Param item = `CC(C)c1c(C(=O)Nc2ccccc2)c(-c2ccccc2)c(-c2ccc(F)cc2)n1CC[C@@H](O)C[C@@H](O)CC(=O)O` ; retrieve measured pIC50.
< 3.52

---

# protocol: FAERS analysis of reported rhabdomyolysis cases per suspect drug
# assay context: FAERS 2004 to 31 March 2020; total 27,140 rhabdomyolysis cases; some cases with more than one suspected drug
measure: Number of Rhabdomyolysis Cases
One number for each entry.

Answered cases to consult:
CC(C)c1nc(N(C)S(C)(=O)=O)nc(-c2ccc(F)cc2)c1/C=C/[C@@H](O)C[C@@H](O)CC(=O)O: 2008
O=C(CCCN1CCC(O)(c2ccc(Cl)cc2)CC1)c1ccc(F)cc1: 310
CN1CCN(C2=Nc3cc(Cl)ccc3Nc3ccccc32)CC1: 286
CC[C@H]1OC(=O)[C@H](C)[C@@H](O[C@H]2C[C@@](C)(OC)[C@@H](O)[C@H](C)O2)[C@H](C)[C@@H](O[C@@H]2O[C@H](C)C[C@H](N(C)C)[C@H]2O)[C@](C)(OC)C[C@@H](C)C(=O)[C@H](C)[C@@H](O)[C@]1(C)O: 427
CC[C@@H](C(N)=O)N1CCCC1=O: 588

Field: Number of Rhabdomyolysis Cases. Fill in for each record below.
1. COc1ccc(C(CN(C)C)C2(O)CCCCC2)cc1 (stereo not shown)
2. CN(C)C(=N)N=C(N)N

[425, 478]

---

# protocol: FAERS analysis of reported rhabdomyolysis cases per suspect drug
# assay context: rhabdomyolysis with suspected drug vs all other drugs in FAERS
Hi there, I'd appreciate the recorded ROR (reported odds ratio) for every entry that follows.

CC(=O)Oc1ccccc1C(=O)O: 0.2

Below are 5 compounds. Give each one its ROR (reported odds ratio).
1. O=C1CCc2ccc(OCCCCN3CCN(c4cccc(Cl)c4Cl)CC3)cc2N1
2. CC(C)c1cccc(C(C)C)c1O
3. Cc1nnc2n1-c1ccc(Cl)cc1C(c1ccccc1)=NC2
4. CC(C)c1c(C(=O)Nc2ccccc2)c(-c2ccccc2)c(-c2ccc(F)cc2)n1CC[C@@H](O)C[C@@H](O)CC(=O)O
5. Cc1ccc(C)c(OCCCC(C)(C)C(=O)O)c1

1: 0.4; 2: 2.2; 3: 0.4; 4: 4.3; 5: 15.0

Provide reported ROR (reported odds ratio) for each item, in the same order as listed.
1. CC(C)c1nc(N(C)S(C)(=O)=O)nc(-c2ccc(F)cc2)c1/C=C/[C@@H](O)C[C@@H](O)CC(=O)O
2. CC[C@H]1OC(=O)[C@H](C)[C@@H](O[C@H]2C[C@@](C)(OC)[C@@H](O)[C@H](C)O2)[C@H](C)[C@@H](O[C@@H]2O[C@H](C)C[C@H](N(C)C)[C@H]2O)[C@](C)(OC)C[C@@H](C)C(=O)[C@H](C)[C@@H](O)[C@]1(C)O

1. 2.9
2. 1.2

---

# System: L6 cells
# protocol: Acute metabolic switch assay (cellular ATP content, glucose vs galactose media) in L6 differentiated myotubes
# assay context: Rattus norvegicus, L6, 2 h, read-out: ATP IC50 Glucose
pIC50: −log10 of the molar value. Counter-ions that a name gives are not always drawn.
measure: pIC50

CCCCCCCCCC(=O)N[C@@H](Cc1c[nH]c2ccccc12)C(=O)N[C@H](CC(N)=O)C(=O)N[C@@H](CC(=O)O)C(=O)N[C@@H]1C(=O)NCC(=O)N[C@@H](CCCN)C(=O)N[C@@H](CC(=O)O)C(=O)N[C@H](C)C(=O)N[C@@H](CC(=O)O)C(=O)NCC(=O)N[C@H](CO)C(=O)N[C@@H]([C@H](C)CC(=O)O)C(=O)N[C@@H](CC(=O)c2ccccc2N)C(=O)O[C@@H]1C [Daptomycin]: < 4.00
CCC(C)(C)C(=O)O[C@H]1C[C@@H](C)C=C2C=C[C@H](C)[C@H](CC[C@@H](O)C[C@@H](O)CC(=O)O)[C@H]21 [Simvastatin acid, Simvastatin hydroxy acid ammonium salt]: < 3.52
CC(C)c1nc(N(C)S(C)(=O)=O)nc(-c2ccc(F)cc2)c1/C=C/[C@@H](O)C[C@@H](O)CC(=O)O [Rosuvastatin]: < 3.52
CC(C)C[C@H](CN)CC(=O)O [Pregabalin]: < 3.52
C=C(C)[C@H]1Cc2c(ccc3c2O[C@@H]2COc4cc(OC)c(OC)cc4[C@@H]2C3=O)O1 [Rotenone]: < 5.30

For each of the molecules below, note its pIC50.
1. CC[C@@H](C(N)=O)N1CCCC1=O [Levetiracetam]
2. CC(C)c1cccc(C(C)C)c1O [Propofol]
3. O=C1[C@H](CC[C@H](O)c2ccc(F)cc2)[C@@H](c2ccc(O)cc2)N1c1ccc(F)cc1 [Ezetimibe]

1: < 3.52; 2: < 3.52; 3: < 3.52

---

# protocol: FAERS analysis of reported rhabdomyolysis cases per suspect drug
# assay context: monotherapy rhabdomyolysis cases with fatal outcome
Hi! Could you tag entries with Number of Death Cases (n = 576) below 20 as T, and those at or above as F? Much appreciated.

# count of solved cases: 6
CC[C@@H](C(N)=O)N1CCCC1=O: T
CC(C)OC(=O)C(C)(C)Oc1ccc(C(=O)c2ccc(Cl)cc2)cc1 [Fenofibrate]: T
Cc1cc2c(s1)Nc1ccccc1N=C2N1CCN(C)CC1: F
CC(C)c1nc(N(C)S(C)(=O)=O)nc(-c2ccc(F)cc2)c1/C=C/[C@@H](O)C[C@@H](O)CC(=O)O: F
CC(C)c1c(C(=O)Nc2ccccc2)c(-c2ccccc2)c(-c2ccc(F)cc2)n1CC[C@@H](O)C[C@@H](O)CC(=O)O: F
CN1CCN(C2=Nc3cc(Cl)ccc3Nc3ccccc32)CC1: T

Let us examine a further case.
API: query returns whether the molecule falls strictly under 20 in Number of Death Cases (n = 576). Query: `CCCCCCCCCC(=O)N[C@@H](Cc1c[nH]c2ccccc12)C(=O)N[C@H](CC(N)=O)C(=O)N[C@@H](CC(=O)O)C(=O)N[C@@H]1C(=O)NCC(=O)N[C@@H](CCCN)C(=O)N[C@@H](CC(=O)O)C(=O)N[C@H](C)C(=O)N[C@@H](CC(=O)O)C(=O)NCC(=O)N[C@H](CO)C(=O)N[C@@H]([C@H](C)CC(=O)O)C(=O)N[C@@H](CC(=O)c2ccccc2N)C(=O)O[C@@H]1C`
T
